The reported numbers originate from patent US20240165282A1.

# assayed target: human cloned somatostatin receptor 1 (human) (UniProt P30872)
# Sequence (P30872 whole entry): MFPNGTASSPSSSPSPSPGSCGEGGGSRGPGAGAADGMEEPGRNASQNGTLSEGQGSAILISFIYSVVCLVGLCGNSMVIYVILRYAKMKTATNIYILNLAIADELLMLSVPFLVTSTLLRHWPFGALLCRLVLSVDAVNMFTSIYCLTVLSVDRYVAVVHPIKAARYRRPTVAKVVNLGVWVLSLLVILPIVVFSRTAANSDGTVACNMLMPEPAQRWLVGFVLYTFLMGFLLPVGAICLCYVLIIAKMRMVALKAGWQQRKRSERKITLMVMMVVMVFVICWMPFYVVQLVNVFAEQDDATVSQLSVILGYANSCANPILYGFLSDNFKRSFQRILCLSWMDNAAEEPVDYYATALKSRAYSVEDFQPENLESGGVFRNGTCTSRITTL
# method notes: 125I-Tyr11-SRIF-14 displacement
*1 amine or outer side, *2 acyl side, *3 side chain or, on linkers, in order; H or OH if unused. Bridges are numbered along the chain shown (N, C = ends). [ ]: non-standard residue; d: D form. The star is where a group is joined. DOTA = O=C(O)CN1CCN(CC(=O)O)CCN(CC(=O)*)CCN(CC(=O)O)CC1; N(2-mercaptoethyl)Gly = O=C(CN(CCS[*:3])[*:1])[*:2]
metric name: pIC50
Kindly note that pIC50 refers to -log10 of the concentration in mol/L and answer with the value alone.

Answer with the recorded pIC50 for the binder listed here: H-[dF]RCF[dW]KTF[N(2-mercaptoethyl)Gly]-NH2 (disulfide 3-9; SMILES C[C@@H](O)[C@@H]1NC(=O)[C@H](CCCCN)NC(=O)[C@@H](Cc2c[nH]c3ccccc23)NC(=O)[C@H](Cc2ccccc2)NC(=O)[C@@H](NC(=O)[C@H](CCCNC(=N)N)NC(=O)[C@H](N)Cc2ccccc2)CSSCCN(CC(N)=O)C(=O)[C@H](Cc2ccccc2)NC1=O) [SEQ ID NO: 1]
6.74

Answer with the recorded pIC50 for the binder listed here: {DOTA}-[dF]RCF[dW]KTF[N(2-mercaptoethyl)Gly]-NH2 (disulfide 3-9; also: Cu complex of DOTA) [SEQ ID NO: 5]
6.11

Answer with the recorded pIC50 for the binder listed here: {DOTA}-[dF]RCF[dW]KTF[N(2-mercaptoethyl)Gly]-NH2 (disulfide 3-9; also: Lu complex of DOTA) [SEQ ID NO: 6]
6.51
